Values were extracted from patent US10894784B2.

biological target: UniProt:Q9UHD2; test: TBK1 low ATP kinase assay (in vitro assay 1); assay type: biochemical; conditions: TBK1 low ATP kinase assay IC50, in vitro assay 1
Sequence (Q9UHD2 whole entry): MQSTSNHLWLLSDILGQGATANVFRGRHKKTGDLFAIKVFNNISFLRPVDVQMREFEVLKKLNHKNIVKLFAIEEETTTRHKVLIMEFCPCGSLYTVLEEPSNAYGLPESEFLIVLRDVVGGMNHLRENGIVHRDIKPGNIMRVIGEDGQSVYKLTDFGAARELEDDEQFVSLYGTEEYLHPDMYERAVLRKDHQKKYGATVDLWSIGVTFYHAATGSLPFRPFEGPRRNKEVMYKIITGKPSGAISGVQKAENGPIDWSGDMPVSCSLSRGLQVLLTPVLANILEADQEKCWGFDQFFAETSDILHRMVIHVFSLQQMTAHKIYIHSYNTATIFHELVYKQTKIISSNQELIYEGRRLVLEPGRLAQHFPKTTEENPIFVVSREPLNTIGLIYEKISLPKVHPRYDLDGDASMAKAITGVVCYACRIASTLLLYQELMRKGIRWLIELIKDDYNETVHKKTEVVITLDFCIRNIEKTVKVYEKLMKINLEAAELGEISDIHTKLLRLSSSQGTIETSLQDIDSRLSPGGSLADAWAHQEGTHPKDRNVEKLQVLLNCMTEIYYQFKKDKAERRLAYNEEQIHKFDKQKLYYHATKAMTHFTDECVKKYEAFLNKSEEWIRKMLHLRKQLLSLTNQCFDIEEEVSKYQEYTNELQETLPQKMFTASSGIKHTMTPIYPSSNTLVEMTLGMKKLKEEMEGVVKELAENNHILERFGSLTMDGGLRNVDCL
pIC50: −log10 of the molar value.
PROPERTY NAME: pIC50

Illustrative cases are given below, each with its answer.
COMPOUND: Cc1noc(-c2ccc3nc(Nc4cc(C(C)N5CCN(C(=O)CC(F)(F)F)CC5)ccn4)[nH]c3c2)n1 (racemic) [Example 16.05.02]
QUANTITATIVE READOUT: 7.48
//
COMPOUND: O=C(CC(F)(F)F)N1CCN(Cc2ccnc(Nc3nc4ccc(-c5cnn(CC6CCC6)c5)cc4[nH]3)c2)CC1
QUANTITATIVE READOUT: 8.12
//
COMPOUND: Cc1cc(-c2ccc3nc(Nc4cc(C(C)N5CCN(C(=O)CC(F)(F)F)CC5)ccn4)[nH]c3c2)ncn1 (single isomer, unassigned) [Example 30.03.01.B]
QUANTITATIVE READOUT: 8.67
//
COMPOUND: CC(c1ccnc(Nc2nc3ccc(-c4cnn(CC5CC5)c4)cc3[nH]2)c1)N1CCN(C(=O)CC(F)(F)F)CC1 (single isomer, unassigned)
QUANTITATIVE READOUT: 8.74

I = CC(c1ccnc(Nc2nc3ccc(-c4cc(OCC5CC5)ncn4)cc3[nH]2)c1)N1CCN(C(=O)CC(F)(F)F)CC1 (single isomer, unassigned)
II = Cc1cc(-c2ccc3nc(Nc4cc(C(C)N5CCN(C(=O)CC(F)(F)F)CC5)ccn4)[nH]c3c2)ncn1 (racemic) [Example 30.02.01]
Parameter metric = pIC50. Return the lower-valued option from I and II . Kindly give the label for the entry you pick.
II
(II: 8.35, I: 8.74)
